Cited source: patent US20220332804A1

Biological target: T1, human complement C2 (human, UniProt P06681 21-752)
T1 sequence: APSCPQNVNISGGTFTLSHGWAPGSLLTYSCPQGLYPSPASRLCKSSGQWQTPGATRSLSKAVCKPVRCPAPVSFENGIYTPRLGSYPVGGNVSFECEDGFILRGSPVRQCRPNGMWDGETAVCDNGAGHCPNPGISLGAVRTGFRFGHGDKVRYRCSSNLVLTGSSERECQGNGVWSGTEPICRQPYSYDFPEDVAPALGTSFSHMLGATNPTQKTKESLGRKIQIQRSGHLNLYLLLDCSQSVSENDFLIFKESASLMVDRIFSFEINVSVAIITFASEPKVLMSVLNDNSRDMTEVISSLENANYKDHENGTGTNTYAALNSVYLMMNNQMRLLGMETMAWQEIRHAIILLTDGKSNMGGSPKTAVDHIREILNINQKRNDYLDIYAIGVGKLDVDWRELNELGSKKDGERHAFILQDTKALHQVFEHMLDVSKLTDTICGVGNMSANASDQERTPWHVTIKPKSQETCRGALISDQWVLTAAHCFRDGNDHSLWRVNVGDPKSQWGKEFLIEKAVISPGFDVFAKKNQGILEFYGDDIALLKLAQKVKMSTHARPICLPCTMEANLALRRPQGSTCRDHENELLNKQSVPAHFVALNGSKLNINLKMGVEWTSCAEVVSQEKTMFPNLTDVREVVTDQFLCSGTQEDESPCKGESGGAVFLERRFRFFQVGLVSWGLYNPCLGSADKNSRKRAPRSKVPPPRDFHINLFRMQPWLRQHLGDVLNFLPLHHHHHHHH
Experiment: cell-based or functional assay
Exam item: assign Fulfilled to entries whose IC50, inhibition of human lectin complement pathway (Wieslab assay) is below 2 nM and Not fulfilled to entries at or above 2 nM. Note that a value of exactly 2 nM receives Not fulfilled.

Query: Is it true that IC50, inhibition of human lectin complement pathway (Wieslab assay) reported for RF16-203 (antibody, V domains shown, Human antibody from a phage display library) VH: EVQLLESGGGLVQPGGSLRLSCAASGFTFSRYYMMWVRQAPGKGLEWVSSIGSSGGTTNYADSVKGRFTISRDNSKNTLYLQMNSLRAEDTATYYCAKGGMVLGVVNIWGQGTLVTVSS VL: QSALTQPPSVSVSPGQTATITCSGDKLGEKYVSWYQQKPGQSPVVVIFQDIKRPSGIPERFSGSNSGNTATLTISGTQAMDEADYYCQTWGTGGIQVFGGGTKLTVLR is less than 2 nM?
Reply: Fulfilled

Query: Consider the binder RF16-191 (antibody, V domains shown, Human antibody from a phage display library) VH: EVQLLESGGGLVQPGGSLRLSCAASGFTFSKYWMGWVRQATGKGLEWVSSIYSSGGWTYYADSVKGRFTISRDNSKNTLYLQMNSLRAEDTAVYYCARRPRSFSGSYYRAFDIWGQGTMVTVSS VL: DIQMTQSPSSLSASVGDRVTITCRASQSITDYLNWYQQRPGKAPKLLIYAASSLQSGVPSRFSGSGSGTDFTLTISGLQPEDFATYYCQQSYSSSITFGQGTRLDLKR . Is its IC50, inhibition of human lectin complement pathway (Wieslab assay) strictly less than 2 nM?
Reply: Fulfilled

Query: Strictly below 2 nM: is that where IC50, inhibition of human lectin complement pathway (Wieslab assay) of RF16-191G (antibody, V domains shown) VH: EVQLLESGGGLVQPGGSLRLSCAASGFTFSKYWMGWVRQAPGKGLEWVSSIYSSGGWTYYADSVKGRFTISRDNSKNTLYLQMNSLRAEDTAVYYCARRPRSFSGSYYRAFDIWGQGTMVTVSS VL: DIQMTQSPSSLSASVGDRVTITCRASQSITDYLNWYQQKPGKAPKLLIYAASSLQSGVPSRFSGSGSGTDFTLTISSLQPEDFATYYCQQSYSSSITFGQGTRLDLKR sits?
Reply: Fulfilled

Query: Consider RF16-214G (antibody, V domains shown) VH: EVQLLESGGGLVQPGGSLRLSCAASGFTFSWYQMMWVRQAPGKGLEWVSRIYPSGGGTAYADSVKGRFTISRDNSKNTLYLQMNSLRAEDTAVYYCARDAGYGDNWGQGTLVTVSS VL: SYELTQPPSVSVSPGQTASITCSGDKLGEKYASWYQQKPGQSPVLVIYQDRKRPSGIPERFSGSNSGNTATLTISGTQAMDEADYYCQAWDTRAVVFGGGTKLTVLG . Does its IC50, inhibition of human lectin complement pathway (Wieslab assay) lie strictly below 2 nM?
Reply: Not fulfilled

Query: Does the reported IC50, inhibition of human lectin complement pathway (Wieslab assay) of the following binder sit strictly below 2 nM? RF16-214 (antibody, V domains shown) VH: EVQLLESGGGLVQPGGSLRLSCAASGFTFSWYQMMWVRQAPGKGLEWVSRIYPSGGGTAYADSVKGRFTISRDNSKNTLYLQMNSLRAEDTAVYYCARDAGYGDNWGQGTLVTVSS VL: QSALTQPPSVSVSPGQTASITCSGDKLGEKYASWYQQKAGQSPVMVIYQDRKRPSGIPERFSGSNSGNTATLTISGTQAMDEADYYCQAWDTRAVVFGGGTKLTVLG
Reply: Not fulfilled
